target: T1, β-1,3-glucanase (Hevea brasiliensis (endogenous in latex …, UniProt P52407 37-356)); experiment: SPR; Biacore 3000, 25 °C; β-1,3-glucanase amine-coupled to a CM5 chip (5000 RU); analytes flowed in HBS-EP pH 7.4 at 30 μL/min; multi-cycle kinetics, 1:1 Langmuir fit; apparent constants; settings: both partners purified
T1 construct: β-1,3-glucanase of the lutoids (B-serum) of Hevea brasiliensis latex; two bands of about 35.5 and 41 kDa, both recognised by anti-glucanase and identified as β-1,3-glucanase by MALDI TOF MS; The preparation holds two forms (35.5 and 41 kDa); source: purified from B-serum of rubber tree latex (0-65% (NH4)2SO4, CM Sepharose Fast Flow); also unpurified in B-serum
T1 sequence (P52407 37-356): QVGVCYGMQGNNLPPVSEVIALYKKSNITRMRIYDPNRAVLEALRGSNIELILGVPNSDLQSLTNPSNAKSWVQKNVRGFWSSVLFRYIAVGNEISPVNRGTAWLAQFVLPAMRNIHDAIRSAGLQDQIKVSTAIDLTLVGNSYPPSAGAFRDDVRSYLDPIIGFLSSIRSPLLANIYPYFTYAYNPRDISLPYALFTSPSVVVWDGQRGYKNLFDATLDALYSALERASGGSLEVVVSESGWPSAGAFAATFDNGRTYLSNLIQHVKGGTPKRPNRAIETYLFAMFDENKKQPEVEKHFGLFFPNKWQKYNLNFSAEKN
recorded.endpoint: pKd
Give only the number. pKd is defined as minus log10 of concentration in molar units.

pro-hevein (natural protein, UniProt P02877 18-204, looked up, source: purified from B-serum of rubber tree latex (Sephacryl S-200HR); also unpurified in B-serum) EQCGRQAGGKLCPNNLCCSQWGWCGSTDEYCSPDHNCQSNCKDSGEGVGGGSASNVLATYHLYNSQDHGWDLNAASAYCSTWDANKPYSWRSKYGWTAFCGPVGAHGQSSCGKCLSVTNTGTGAKTTVRIVDQCSNGGLDLDVNVFRQLDTDGKGYERGHITVNYQFVDCGDSFNPLFSVMKSSVIN    3.64

Moving on to the next binder.
Prompt: // pKd lookup, key: EQCGRQAGGKLCPNNLCCSQWGWCGSTDEYCSPDHNCQSNCKD (natural protein, UniProt P02877 18-60, looked up, hevein, the N-terminal part split from pro-hevein, Hevea brasiliensis; runs at 10 kDa in Tricine-SDS-PAGE; source: purified from B-serum of rubber tree latex (85-95% (NH4)2SO4, Sephacryl S-200HR); also unpurified in B-serum) [hevein]
Completion: 4.06
